# experimental details: Human HepG2 cell viability assay in 384 well format
# Format: toxicity, cell-based
# Set-up: dose 125 nL, time 70.5 hour; concentration not given beside the values
# condition: HepG2 cells, read-out: Inhibition
cytotoxicity at 70.5 h reference
measurement kind: cytotoxicity at 70.5 h (%)

[[record]]
compound = "CN1CCOC(CNC(=O)C2(c3cccc(Cl)c3)CC2)C1 (stereo unspecified)"
measurement_kind = "cytotoxicity at 70.5 h"
quantity_unit = "%"
quantitative_result = -5.99

[[record]]
compound = "OC[C@H]1CN(Cc2c(Cl)cncc2Cl)C[C@H]1CN1CCCCCC1"
measurement_kind = "cytotoxicity at 70.5 h"
quantity_unit = "%"
quantitative_result = -1.47

[[record]]
compound = "Cc1ccc(-c2cc(CNC(=O)N3CCC(N(C)C)CC3)on2)cc1"
measurement_kind = "cytotoxicity at 70.5 h"
quantity_unit = "%"
quantitative_result = 4.4

[[record]]
compound = "Cc1cc(C)c(CNC(=O)NCC2CCCN2C)c(=O)[nH]1 (stereo unspecified)"
measurement_kind = "cytotoxicity at 70.5 h"
quantity_unit = "%"
quantitative_result = 19

[[record]]
compound = "CCOC(=O)C1CC2(CCOCC2)N2CCC(=O)N12 (stereo unspecified)"
measurement_kind = "cytotoxicity at 70.5 h"
quantity_unit = "%"
quantitative_result = -6.97

[[record]]
compound = "O=C(c1nc(=O)[nH]c2ccccc12)N1CCCC(CC2CC2)(C(=O)O)C1 (stereo unspecified)"
measurement_kind = "cytotoxicity at 70.5 h"
quantity_unit = "%"
quantitative_result = -8.79

[[record]]
compound = "Nc1ncnc2nc(C3CCN(C(=O)Cc4ccc(F)cc4)C3)ccc12 (stereo unspecified)"
measurement_kind = "cytotoxicity at 70.5 h"
quantity_unit = "%"
quantitative_result = -9.46

[[record]]
compound = "Cc1c(NC(=O)NC2CCCC2)cccc1C(=O)N1CCSCC1"
measurement_kind = "cytotoxicity at 70.5 h"
quantity_unit = "%"
quantitative_result = -3.56

[[record]]
compound = "Cc1cnn(CCNCC(O)COc2cc(Cl)ccc2Cl)c1 (stereo unspecified)"
measurement_kind = "cytotoxicity at 70.5 h"
quantity_unit = "%"
quantitative_result = -14.6

[[record]]
compound = "CCN(Cc1ccoc1)C(=O)C1CN(C(=O)OC(C)(C)C)C1"
measurement_kind = "cytotoxicity at 70.5 h"
quantity_unit = "%"
quantitative_result = -13.5

[[record]]
compound = "O=C1CC2(CCN(c3nncs3)C2)CN1c1cncnc1 (stereo unspecified)"
measurement_kind = "cytotoxicity at 70.5 h"
quantity_unit = "%"
quantitative_result = -0.39

